# Test name: Toxicokinetics of the 7-day tox study
# Type: in vivo, rats
# Condition description: male, rat, whole blood, po, 30 mg/kg, Day 1, 30 mg/kg oral, Male
Value type: Tmax

q: # lookup: Tmax of CN1CCN(c2nc(NCCN3CCOCC3)c3nc(Cl)c(NCCN4CCOCC4)nc3n2)CC1
a: 3 h

----------
# Test name: Toxicokinetics of the 7-day tox study
# Type: in vivo, rats
# Condition description: female, rat, whole blood, po, 30 mg/kg, Day 1, 30 mg/kg oral, Female
Value type: Cmax (ng/mL)
Express your answer in ng/mL, writing the number without its unit.

q: So what does the record say about Cmax for CN1CCN(c2nc(NCCN3CCOCC3)c3nc(Cl)c(NCCN4CCOCC4)nc3n2)CC1 ?
a: 643

----------
# Test name: Toxicokinetics of the 7-day tox study
# Format: in vivo, rats
# Condition description: male, rat, whole blood, po, 100 mg/kg, Day 1, 100 mg/kg oral, Male; read-out: T½ (converted)
# Experimental: A 7-day non-GLP tox study was performed in rats. […] The following parameters and end points were evaluated in this study: clinical signs, body weights, body weight changes, food consumption, clinical pathology parameters (hematology, coagulation, clinical chemistry, and urinalysis), toxicokinetic parameters, gross necropsy findings, organ weights, and histopathologic examinations. Clinical signs and body weight changes in the TK animals were generally similar to the main toxicology phase animals. […]
Value type: half-life (h)
Express the result in h but write the number alone.

q: I am curious: what half-life value has been reported for CN1CCN(c2nc(NCCN3CCOCC3)c3nc(Cl)c(NCCN4CCOCC4)nc3n2)CC1 [JB6121] ?
a: 11.9

----------
# Test name: Aqueous solubility (CEREP)
# Format: physicochemical
# Condition description: PBS, pH 7.4, aqueous buffer; read-out: Aqueous Solubility, PBS, pH 7.4
Value type: solubility

q: Record request: solubility value, item CN1CCN(c2nc(NCCN3CCOCC3)c3nc(Cl)c(NCCN4CCOCC4)nc3n2)CC1
a: > 200 µM

----------
# Test name: Toxicokinetics of the 7-day tox study
# Format: in vivo, rats
# Condition description: female, rat, whole blood, po, 100 mg/kg, Day 1, 100 mg/kg oral, Female
Value type: Tmax (h)
State the answer as a number, implicitly in h.

q: Fill blank: measured Tmax of the compound CN1CCN(c2nc(NCCN3CCOCC3)c3nc(Cl)c(NCCN4CCOCC4)nc3n2)CC1 is ____.
a: 3

----------
# Test name: Toxicokinetics of the 7-day tox study
# Assay type: in vivo, rats
# Condition description: male, rat, whole blood, po, 30 mg/kg, Day 7, 30 mg/kg oral, Male
Value type: AUC (ng·h/mL)
Express your answer in ng·h/mL, writing the number without its unit.

q: Can you look up the measured AUC of CN1CCN(c2nc(NCCN3CCOCC3)c3nc(Cl)c(NCCN4CCOCC4)nc3n2)CC1 for me?
a: 11100

----------
# Test name: Aqueous solubility (CEREP)
# Assay type: physicochemical
# Condition description: simulated intestinal fluid, fassgf or other biorelevant; read-out: Aqueous Solubility, simulated Intestinal Fluid
Value type: solubility

q: Entry CN1CCN(c2nc(NCCN3CCOCC3)c3nc(Cl)c(NCCN4CCOCC4)nc3n2)CC1 [JB6121] has what solubility?
a: 195 µM

----------
# Experimental target: M (non-selective) Muscarinic Receptor
# Test name: Receptor cross-reactivity binding panel (CEREP)
# Condition description: most-likely, estimated from 10 μM result
Value type: IC50

q: I am curious: what IC50 value has been reported for CN1CCN(c2nc(NCCN3CCOCC3)c3nc(Cl)c(NCCN4CCOCC4)nc3n2)CC1 ?
a: > 5 µM
